Test target: CDK7/Cyclin H/MNAT1 (Homo sapiens, UniProt P50613)
Sequence (P51946 whole entry): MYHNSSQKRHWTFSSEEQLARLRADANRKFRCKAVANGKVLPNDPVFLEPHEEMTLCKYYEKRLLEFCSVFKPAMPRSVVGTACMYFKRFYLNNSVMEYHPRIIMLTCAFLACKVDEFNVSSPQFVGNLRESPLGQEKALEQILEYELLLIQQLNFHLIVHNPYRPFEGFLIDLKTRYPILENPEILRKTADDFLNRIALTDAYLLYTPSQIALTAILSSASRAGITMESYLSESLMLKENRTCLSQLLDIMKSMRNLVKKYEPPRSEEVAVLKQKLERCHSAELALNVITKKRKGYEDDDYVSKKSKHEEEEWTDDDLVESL
Sequence (P50613 whole entry): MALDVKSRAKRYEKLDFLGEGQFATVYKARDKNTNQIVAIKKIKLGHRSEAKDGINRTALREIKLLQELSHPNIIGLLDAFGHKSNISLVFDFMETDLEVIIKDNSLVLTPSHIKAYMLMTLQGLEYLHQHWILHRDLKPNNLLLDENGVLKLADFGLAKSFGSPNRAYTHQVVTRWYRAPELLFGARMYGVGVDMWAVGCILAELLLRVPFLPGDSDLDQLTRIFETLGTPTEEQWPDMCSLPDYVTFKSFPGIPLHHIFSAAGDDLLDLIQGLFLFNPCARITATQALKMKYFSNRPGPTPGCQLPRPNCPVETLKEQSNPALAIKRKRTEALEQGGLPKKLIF
Sequence (P51948 whole entry, further chain): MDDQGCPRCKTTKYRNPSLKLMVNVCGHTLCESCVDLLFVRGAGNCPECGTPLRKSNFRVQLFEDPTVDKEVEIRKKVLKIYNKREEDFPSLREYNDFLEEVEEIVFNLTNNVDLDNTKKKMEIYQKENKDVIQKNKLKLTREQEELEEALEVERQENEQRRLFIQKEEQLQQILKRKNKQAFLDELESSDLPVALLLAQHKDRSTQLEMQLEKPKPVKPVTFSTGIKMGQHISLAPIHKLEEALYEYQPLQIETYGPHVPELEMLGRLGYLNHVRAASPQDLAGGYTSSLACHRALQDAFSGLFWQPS
pIC50: −log10 of the molar value.
# maps each entry to its pIC50
Readout type: pIC50

[[record]]
compound_string = "Cn1cc(-c2ccc(N(C(=O)NCc3ccccc3)[C@H]3CC[C@@H](Nc4ccc(C#N)cn4)CC3)cc2)cn1"
result = "< 5.00"

[[record]]
compound_string = "CC(C)C(=O)OC[C@@H]1O[C@@H](n2cnc(N)c3c(C(N)=O)c(Br)nc2-3)[C@@H](O)[C@@H]1O"
result = 5.92

[[record]]
compound_string = "Cn1cc(-c2ccc(N(C(=O)NCc3ccccc3)[C@H]3CC[C@H](Nc4ccc(C#N)cn4)CC3)cc2)ccc1=O"
result = "< 5.00"

[[record]]
compound_string = "Cn1cc(-c2ccc(S(=O)(=O)N3CCC(Nc4ccc(C#N)cn4)CC3)cc2)cn1"
result = "< 5.00"


* * *

Assay name: Partition coefficient between 1-octanol and aqueous buffer, log D of the compound at pH 7.4 buffer by chromatography
Format: physicochemical
Conditions used: 1-octanol/aqueous buffer
Readout type: chromatographic logD

[[record]]
compound_string = "Cn1c(-c2ccc(N(C(=O)NCc3ccccc3)[C@H]3CC[C@H](Nc4ccc(C#N)cn4)CC3)cc2)cccc1=O"
number = 2.6

[[record]]
compound_string = "Cn1cc(-c2ccc(N(C(=O)NCc3ccccc3)[C@H]3CC[C@H](Nc4ccc(C#N)cn4)CC3)cc2)ccc1=O"
number = 2.4

[[record]]
compound_string = "Cn1cc(-c2ccc(N(C(=O)NCc3ccccc3)[C@H]3CC[C@H](Nc4ccc(C#N)cn4)CC3)cc2)cn1"
number = 2.8

[[record]]
compound_string = "N#Cc1ccc(N[C@H]2CC[C@H](N(C(=O)NCc3ccccc3)c3ccccc3)CC2)nc1"
number = 3.3

[[record]]
compound_string = "Cn1ccc(-c2ccc(N(C(=O)NCc3ccccc3)[C@H]3CC[C@H](Nc4ccc(C#N)cn4)CC3)cc2)cc1=O"
number = 2.3

[[record]]
compound_string = "N#Cc1ccc(N[C@H]2CC[C@H](N(C(=O)NCc3ccccc3)c3ccc(-c4cccnc4)cc3)CC2)nc1"
number = 3

[[record]]
compound_string = "Cn1cccc(-c2ccc(N(C(=O)NCc3ccccc3)[C@H]3CC[C@H](Nc4ccc(C#N)cn4)CC3)cc2)c1=O"
number = 2.7


* * *

# maps each entry to its IC50
Test target: CDK2/Cyclin A2 (Homo sapiens, UniProt P24941)
Assay name: Inhibition of GST-tagged human CDK2/CCNA2 (04 to 103 residues) pre-incubated for 5 mins before addition of histone H1 substrate and [gamma-33P]ATP and measured after 20 mins by radiometric assay
Readout type: IC50 (µM)

[[record]]
compound_string = "COc1ccc(NC2CCN(S(=O)(=O)c3ccc(-c4cnn(C)c4)cc3)CC2)nc1"
readout_type = "IC50"
sign_qualifier = "="
number = 21

[[record]]
compound_string = "Cn1cccc(-c2ccc(N(C(=O)NCc3ccccc3)[C@H]3CC[C@H](Nc4ccc(C#N)cn4)CC3)cc2)c1=O"
readout_type = "IC50"
sign_qualifier = "="
number = 18

[[record]]
compound_string = "Cn1ccc(-c2ccc(N(C(=O)NCc3ccccc3)[C@H]3CC[C@H](Nc4ccc(C#N)cn4)CC3)cc2)cc1=O"
readout_type = "IC50"
sign_qualifier = ">"
number = 100


* * *

# maps each entry to its IC50
Test target: CDK2/Cyclin A2 (Homo sapiens)
Assay name: Inhibition of GST-tagged human CDK2/CCNA2 (04 to 103 residues) pre-incubated for 5 mins before addition of histone H1 substrate and [gamma-33P]ATP and measured after 20 mins by radiometric assay
Readout type: IC50

[[record]]
compound_string = "CCNC(=O)N(c1ccc(-c2cnn(C)c2)cc1)[C@H]1CC[C@H](Nc2ccc(C#N)cn2)CC1"
readout_type = "IC50"
result = "4.8 µM"

[[record]]
compound_string = "Cn1cc(-c2ccc(N(C(=O)NCC3CCCCC3)[C@H]3CC[C@H](Nc4ccc(C#N)cn4)CC3)cc2)cn1"
readout_type = "IC50"
result = "> 100 µM"

[[record]]
compound_string = "CC(=O)N(c1ccc(-c2cnn(C)c2)cc1)[C@H]1CC[C@@H](Nc2ccc(C#N)cn2)CC1"
readout_type = "IC50"
result = "> 100 µM"

[[record]]
compound_string = "Cn1cc(-c2ccc(N(C(=O)NCc3ccccc3)[C@H]3CC[C@H](Nc4ccc(C#N)cn4)CC3)cc2)cn1"
readout_type = "IC50"
result = "> 100 µM"

